Taken from paper PMC9643456.

Exercise: for every item that follows, state its recorded Minimum inhibitory concentrations, MDR S. aureus.
Tested on: MDR S. aureus
Test: microbe, parasite or virus in culture
Conditions: CLSI broth microdilution; CAMHB with 50 mg/L Ca2+, 10 mg/L Mg2+; 5 × 10^5 CFU/ml; 18 h 37 °C; triplicate; strain KCCM 40510
Square brackets hold non-standard residues; d marks the D form. Peptide text beside a SMILES is read from it.

These recorded examples may help you get a feel for the data.
compound: CC[C@@H](C)[C@@H](NC(=O)[C@@H](Cc1c[nH]c2ccccc12)NC(=O)[C@@H](CC(C)C)NC(=O)[C@@H](CC(C)C)NC(=O)[C@@H](Cc1c[nH]c2ccccc12)NC(=O)[C@@H](N)CO)C(=O)NCC(=O)N[C@H](CC(C)C)C(=O)N[C@H](CCCNC(=N)N)C(=O)N[C@H](CCCCN)C(=O)N[C@H](CCCCN)C(=O)N[C@H](CCCNC(=N)N)C(N)=O [WCopW19] (H-S[dW][dL][dL][dW][dI]G[dL][dR][dK][dK][dR]-NH2)
result: 2.5 µM
--
compound: CC[C@@H](C)[C@@H](NC(=O)[C@H](N)Cc1c[nH]c2ccccc12)C(=O)N[C@@H](C(=O)N[C@H](Cc1c[nH]c2ccccc12)C(=O)N[C@@H](C(=O)N[C@H](Cc1c[nH]c2ccccc12)C(=O)N[C@H](CCCNC(=N)N)C(=O)N[C@H](CCCNC(=N)N)C(=O)N[C@H](CCCNC(=N)N)C(N)=O)[C@H](C)CC)[C@H](C)CC [WCopW61] (H-[dW][dI][dI][dW][dI][dW][dR][dR][dR]-NH2)
result: 0.63 µM

Proceeding to the next compound to report its Minimum inhibitory concentrations, MDR S. aureus.
### Prompt If you can, please state the reported Minimum inhibitory concentrations, MDR S. aureus value of CC[C@@H](C)[C@@H](NC(=O)[C@@H](Cc1c[nH]c2ccccc12)NC(=O)[C@@H](CC(C)C)NC(=O)[C@H](N)CC(C)C)C(=O)NCC(=O)N[C@H](CC(C)C)C(=O)N[C@H](CCCCN)C(=O)N[C@H](CCCCN)C(=O)N[C@H](CCCCN)C(=O)N[C@H](CCCCN)C(N)=O [WCopW14] (H-[dL][dL][dW][dI]G[dL][dK][dK][dK][dK]-NH2) .
### Response > 20 µM

###

Test system: MDR P. aeruginosa
Assay: microbe, parasite or virus in culture
Conditions: CLSI broth microdilution; CAMHB with 50 mg/L Ca2+, 10 mg/L Mg2+; 5 × 10^5 CFU/ml; 18 h 37 °C; no visible turbidity; triplicate; strain CCARM 2180
Square brackets hold non-standard residues; d marks the D form. Peptide text beside a SMILES is read from it.
Exercise: for every item that follows, state its recorded Minimum inhibitory concentrations, MDR P. aeruginosa.
One number for each entry, in µM.

These recorded examples may help you get a feel for the data.
compound: CC[C@@H](C)[C@@H](NC(=O)[C@@H](Cc1c[nH]c2ccccc12)NC(=O)[C@@H](CC(C)C)NC(=O)[C@@H](CC(C)C)NC(=O)[C@H](N)Cc1c[nH]c2ccccc12)C(=O)NCC(=O)N[C@H](CC(C)C)C(=O)N[C@H](CCCNC(=N)N)C(=O)N[C@H](CCCCN)C(=O)N[C@H](CCCCN)C(=O)N[C@H](CCCNC(=N)N)C(N)=O [WCopW5] (H-[dW][dL][dL][dW][dI]G[dL][dR][dK][dK][dR]-NH2)
recorded.number: 10

compound: CC[C@@H](C)[C@@H](NC(=O)[C@@H](Cc1c[nH]c2ccccc12)NC(=O)[C@H](NC(=O)[C@@H](CC(C)C)NC(=O)[C@@H](Cc1c[nH]c2ccccc12)NC(=O)[C@H](N)CCCCN)C(C)C)C(=O)N[C@H](Cc1c[nH]c2ccccc12)C(=O)N[C@H](CCCNC(=N)N)C(=O)N[C@H](CCCNC(=N)N)C(=O)N[C@H](CCCNC(=N)N)C(N)=O [WCopW35] (H-[dK][dW][dL][dV][dW][dI][dW][dR][dR][dR]-NH2)
recorded.number: 2.5

compound: CC[C@@H](C)[C@@H](NC(=O)[C@H](N)Cc1c[nH]c2ccccc12)C(=O)N[C@@H](C(=O)N[C@H](Cc1c[nH]c2ccccc12)C(=O)N[C@@H](C(=O)N[C@H](Cc1c[nH]c2ccccc12)C(=O)N[C@H](CCCNC(=N)N)C(=O)N[C@H](CCCNC(=N)N)C(=O)N[C@H](CCCNC(=N)N)C(N)=O)[C@H](C)CC)[C@H](C)CC [WCopW61] (H-[dW][dI][dI][dW][dI][dW][dR][dR][dR]-NH2)
recorded.number: 5

Please give Minimum inhibitory concentrations, MDR P. aeruginosa for each item listed below.
1. CC[C@@H](C)[C@@H](NC(=O)[C@@H](Cc1c[nH]c2ccccc12)NC(=O)[C@@H](CCCNC(=N)N)NC(=O)[C@@H](CCCNC(=N)N)NC(=O)[C@H](N)CCCNC(=N)N)C(=O)N[C@H](Cc1c[nH]c2ccccc12)C(=O)N[C@@H](C(=O)N[C@@H](C(=O)N[C@H](Cc1c[nH]c2ccccc12)C(=O)N[C@H](CCCCN)C(N)=O)[C@H](C)CC)C(C)C [WCopW43] (H-[dR][dR][dR][dW][dI][dW][dV][dI][dW][dK]-NH2)
2. CC[C@@H](C)[C@@H](NC(=O)[C@@H](Cc1c[nH]c2ccccc12)NC(=O)[C@@H](Cc1ccc(O)cc1)NC(=O)[C@@H](CC(C)C)NC(=O)[C@H](N)Cc1c[nH]c2ccccc12)C(=O)NCC(=O)N[C@H](CC(C)C)C(=O)N[C@H](CCCNC(=N)N)C(=O)N[C@H](CCCCN)C(=O)N[C@H](CCCCN)C(=O)N[C@H](CCCNC(=N)N)C(N)=O [WCopWY] (H-[dW][dL][dY][dW][dI]G[dL][dR][dK][dK][dR]-NH2)
3. CC[C@@H](C)[C@@H](NC(=O)[C@@H](Cc1c[nH]c2ccccc12)NC(=O)[C@@H](CCCNC(=N)N)NC(=O)[C@H](N)CCCNC(=N)N)C(=O)N[C@H](Cc1c[nH]c2ccccc12)C(=O)N[C@@H](C(=O)N[C@@H](C(=O)N[C@H](Cc1c[nH]c2ccccc12)C(=O)N[C@H](CCCNC(=N)N)C(N)=O)[C@H](C)CC)C(C)C [WCopW54] (H-[dR][dR][dW][dI][dW][dV][dI][dW][dR]-NH2)
4. CC[C@@H](C)[C@@H](NC(=O)[C@@H](Cc1c[nH]c2ccccc12)NC(=O)[C@@H](CC(C)C)NC(=O)[C@@H](CC(C)C)NC(=O)[C@@H](Cc1c[nH]c2ccccc12)NC(=O)[C@@H](N)CO)C(=O)NCC(=O)N[C@H](CC(C)C)C(=O)N[C@H](CCCNC(=N)N)C(=O)N[C@H](CCCCN)C(=O)N[C@H](CCCCN)C(=O)N[C@H](CCCNC(=N)N)C(N)=O [WCopW19] (H-S[dW][dL][dL][dW][dI]G[dL][dR][dK][dK][dR]-NH2)

### Response
[1.25, 20, 2.5, 10]

###

Tested on: human red blood cells
Experiment: Hemolytic activity
Format: cell-based
Details: red cells of human, 18 h, 25
Square brackets hold non-standard residues; d marks the D form. Peptide text beside a SMILES is read from it.
property: Hemolysis percent, 25 μM
Just so you know, I need the unit written after the number.

### Prompt If you can, please state the reported Hemolysis percent, 25 μM value of CC[C@@H](C)[C@@H](NC(=O)[C@@H](Cc1c[nH]c2ccccc12)NC(=O)[C@H](NC(=O)[C@@H](CC(C)C)NC(=O)[C@H](N)Cc1c[nH]c2ccccc12)C(C)C)C(=O)N[C@H](Cc1ccc(O)cc1)C(=O)N[C@H](CCCNC(=N)N)C(=O)N[C@H](CCCCN)C(=O)N[C@H](CCCCN)C(=O)N[C@H](CCCNC(=N)N)C(N)=O [WCopWVY4] (H-[dW][dL][dV][dW][dI][dY][dR][dK][dK][dR]-NH2) .
### Response 1.86%

###

Exercise: for every item that follows, state its recorded Minimum inhibitory concentrations, MDR A. baumannii.
Test system: MDR A. baumannii
Experiment: microbe, parasite or virus in culture
Details: CLSI broth microdilution; CAMHB with 50 mg/L Ca2+, 10 mg/L Mg2+; 5 × 10^5 CFU/ml; 18 h 37 °C; triplicate; strain ATCC BAA-1605
Square brackets hold non-standard residues; d marks the D form. Peptide text beside a SMILES is read from it.
Answers are plain numbers, in µM.

These recorded examples may help you get a feel for the data.
compound: CC(C)C[C@@H](NC(=O)[C@H](N)Cc1c[nH]c2ccccc12)C(=O)N[C@@H](C(=O)N[C@H](Cc1c[nH]c2ccccc12)C(=O)N[C@H](CCCCN)C(=O)N[C@H](Cc1c[nH]c2ccccc12)C(=O)N[C@H](CCCNC(=N)N)C(=O)N[C@H](CCCNC(=N)N)C(=O)N[C@H](CCCNC(=N)N)C(N)=O)C(C)C [WCopW37] (H-[dW][dL][dV][dW][dK][dW][dR][dR][dR]-NH2)
unit: µM
recorded.number: 2.5

compound: CC[C@@H](C)[C@@H](NC(=O)[C@@H](Cc1c[nH]c2ccccc12)NC(=O)[C@@H](CC(C)C)NC(=O)[C@H](N)CC(C)C)C(=O)NCC(=O)N[C@H](CC(C)C)C(=O)N[C@H](CCCNC(=N)N)C(=O)N[C@H](CCCCN)C(=O)N[C@H](CCCCN)C(=O)N[C@H](CCCNC(=N)N)C(N)=O [WCopW13] (H-[dL][dL][dW][dI]G[dL][dR][dK][dK][dR]-NH2)
unit: µM
recorded.number: 5

compound: CC[C@@H](C)[C@@H](NC(=O)[C@H](N)Cc1c[nH]c2ccccc12)C(=O)N[C@@H](C(=O)N[C@H](Cc1c[nH]c2ccccc12)C(=O)N[C@@H](C(=O)N[C@H](Cc1c[nH]c2ccccc12)C(=O)N[C@H](CCCNC(=N)N)C(=O)N[C@H](CCCNC(=N)N)C(=O)N[C@H](CCCNC(=N)N)C(N)=O)[C@H](C)CC)[C@H](C)CC [WCopW61] (H-[dW][dI][dI][dW][dI][dW][dR][dR][dR]-NH2)
unit: µM
recorded.number: 1.25

### Prompt If you can, please state the reported Minimum inhibitory concentrations, MDR A. baumannii value of CC[C@@H](C)[C@@H](NC(=O)[C@@H](Cc1c[nH]c2ccccc12)NC(=O)[C@@H](CCCNC(=N)N)NC(=O)[C@@H](CCCNC(=N)N)NC(=O)[C@H](N)CCCNC(=N)N)C(=O)N[C@H](Cc1c[nH]c2ccccc12)C(=O)N[C@@H](C(=O)N[C@@H](C(=O)N[C@H](Cc1c[nH]c2ccccc12)C(N)=O)[C@H](C)CC)[C@H](C)CC [WCopW60] (H-[dR][dR][dR][dW][dI][dW][dI][dI][dW]-NH2) .
### Response 1.25
